The following sequences are shown together with reported transcriptional activation domain activity values.
tested on: Saccharomyces cerevisiae; test: transcriptional activation domain activity (GFP:mCherry ratio, weighted mean of sorted bins, harmonized to initial dataset scale) (arbitrary fluorescence ratio units); higher = stronger transcriptional activation; details: beta-estradiol 1 µM; induction time 4 h

These solved cases illustrate the format of a correct answer.
# chain.sequence, test.result
rows = [
    ("YLHAVLCELQSSFNRKATTRSKLTHTPNLPEYTFPFAWLTLPFAAARRCTPAG", 66600),
    ("ESAVKFENSGPFINPSRASTLLVSRDSNRIILSGTTARGKTAVFLTTGLLVES", 63200),
    ("LLLVHGRWSYQRVADMHSNFFYKNVIWTFALFWYLPFNSFDATYLYQYTFILL", 47600),
    ("LKDEVMKIKPVQKQTRAGQRTRFKAVVIVGDSNGHVGLGIKTAKEVATAIRAA", 81600),
    ("HFILTYLLLFMSVPFEFVMASFEFFHLIHCLKFPNTFYSFFFSFVFFLRHFVF", 56700),
]

Now turn to the next sequence.
// query Which value of transcriptional activation domain activity has been reported for FLWGGRHGFVGFCIPLILLFFMLLSCISFCISILHFFFVLSFLLNFFCEFFLR in the records?
// result 36100

----------
Some sequences, each annotated with its measured transcriptional activation domain activity.
test system: Saccharomyces cerevisiae; assay: transcriptional activation domain activity (GFP:mCherry ratio, weighted mean of sorted bins, harmonized to initial dataset scale) (arbitrary fluorescence ratio units); higher = stronger transcriptional activation; settings: beta-estradiol 1 µM; induction time 4 h
Note: the reply should be a number with no unit written.

Some entries whose results are on file:
# chain.sequence, test.result
rows = [
    ("IQAYLVNFLSSACLMNFWVTLTFLLGGEPYHYSTYVLLVGWMFIYLILLFGLI", 37700),
    ("GSWMILRILLHQLLDSVQYIPEYKDIAALRYRGPTYYFQELQKAFYHVLDAVP", 65200),
    ("AVKKEPTPEEDEEEEEEEPAPKPKARGGRKAKASAAVDADAAQAKPKRGRAKK", 30300),
    ("MIWREFFLFFLFFFFLFGIYGLRVAGLDYFVYGDLFVIINISYLFFWWVYAIY", 45900),
    ("VGLYSLCIVSGILFPLYICCWREDFLIQNFVHRSLFTLVFMLLFLLGLIFLEF", 56900),
]

// query What does the data say about its transcriptional activation domain activity? Entry: VPRLKSPVYCVCLGSIILYSICLVLLVIYRVALIRESDGVCLIGFARGGSLPL
// result 31200

// query Moving on to QENHNSSENGNENENEQDSLALDDLDRAFELVEGMDMDWMMPSHAHHSPATTA
// result 123000

----------
test system: Saccharomyces cerevisiae; test: transcriptional activation domain activity (GFP:mCherry ratio, weighted mean of sorted bins, harmonized to initial dataset scale) (arbitrary fluorescence ratio units); higher = stronger transcriptional activation; conditions: beta-estradiol 1 µM; induction time 4 h
Quick rule for you: transcriptional activation domain activity at 40000 or higher means Y, lower means N.

Example entries begin here.
# chain.sequence, assigned.class
rows = [
    ("RYLNITGRCRCSLQDLSFSVLLIRSLGAPLVELHVCCLYWWFGAYRLRFIFFI", "Y"),
    ("MCNVALSLAWFIFPPFLHGILPFSTCLLLVFFLSLSSSFFSLITHLLLHCYLF", "N"),
]

// query API: above_or_equal(metric=transcriptional activation domain activity, cutoff=40000) for item MNLSRVFLKVRAIAFSCISLLSFLWIILLCLMLYYRWDESDHSEHSLLIILLL
// result Y

// query And for MFCLRSWLPLLFIPTNASPVFIFLFFVCTYFLNRPCVYCSFLLLILFMTSCNW ?
// result Y

// query Request: RLEASKKRKARVEVDIVLERDCVVEGGEVRGRMEVRVHGSKRSEGLRVGAGKI
// result Y
